# Assay Explanation: Semi-mass balance study in rats
# Type: in vivo, rat
# Condition Description: Sprague-Dawley, rat; bile duct cannulated rats, PO 1 mg/kg, collection 0–48 h, excreted amount/administered amount, unchanged α-amanitin, LC-qTOF-MS; read-out: Recovery in bile
Measured Quantity: dose excreted (%)
Numbers only, in %.

Lab book: dose excreted of CC[C@H](C)[C@@H]1NC(=O)CNC(=O)[C@@H]2Cc3c([nH]c4cc(O)ccc34)[S@+]([O-])C[C@H](NC(=O)CNC1=O)C(=O)N[C@@H](CC(N)=O)C(=O)N1C[C@H](O)C[C@H]1C(=O)N[C@@H]([C@@H](C)[C@@H](O)CO)C(=O)N2 noted as 0.05
